Entry source: patent US5021549A

tested_target: Aminopeptidase-A (Homo sapiens, UniProt Q07075)
Sequence (Q07075 whole entry): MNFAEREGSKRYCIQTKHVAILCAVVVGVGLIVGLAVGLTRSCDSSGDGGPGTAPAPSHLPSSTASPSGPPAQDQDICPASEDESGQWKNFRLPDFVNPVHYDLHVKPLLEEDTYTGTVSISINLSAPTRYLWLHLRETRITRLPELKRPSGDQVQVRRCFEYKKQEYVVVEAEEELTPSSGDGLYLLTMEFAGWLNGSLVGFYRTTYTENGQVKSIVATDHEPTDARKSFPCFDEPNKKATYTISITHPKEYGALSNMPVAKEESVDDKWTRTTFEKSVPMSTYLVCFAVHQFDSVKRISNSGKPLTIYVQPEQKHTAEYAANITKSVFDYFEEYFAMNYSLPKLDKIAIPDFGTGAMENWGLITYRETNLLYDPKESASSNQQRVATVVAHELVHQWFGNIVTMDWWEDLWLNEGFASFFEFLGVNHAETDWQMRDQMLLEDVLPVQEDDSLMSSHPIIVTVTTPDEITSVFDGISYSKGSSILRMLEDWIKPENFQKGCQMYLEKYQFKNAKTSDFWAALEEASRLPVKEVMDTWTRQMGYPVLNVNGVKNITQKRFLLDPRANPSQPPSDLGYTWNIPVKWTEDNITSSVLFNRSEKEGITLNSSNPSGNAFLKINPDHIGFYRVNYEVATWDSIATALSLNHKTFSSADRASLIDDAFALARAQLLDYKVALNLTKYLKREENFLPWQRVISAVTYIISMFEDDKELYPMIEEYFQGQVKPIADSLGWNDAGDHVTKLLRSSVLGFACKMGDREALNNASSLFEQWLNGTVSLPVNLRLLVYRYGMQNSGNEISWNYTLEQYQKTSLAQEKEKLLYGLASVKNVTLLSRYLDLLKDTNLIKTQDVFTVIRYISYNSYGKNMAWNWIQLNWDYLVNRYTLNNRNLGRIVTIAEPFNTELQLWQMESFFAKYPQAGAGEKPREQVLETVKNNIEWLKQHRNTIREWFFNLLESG
pIC50: −log10 of the molar value.
metric_name: pIC50

Task item: Field: pIC50 (Aminopeptidase-A (Homo sapiens, UniProt Q07075)). Entry: CCCCC[C@H](CC(=O)NO)C(=O)N[C@H](C(=O)N1CCC[C@H]1CO)C(C)C [Actinonin, actinonin, reference compound]
Reply: < 3.59
